- subject_of_test: KRas G12D mutant protein (Homo sapiens (Human), UniProt P01116, G12D)
- Sequence (P01116-2 other isoform, or with tags, fused parts or gaps G12D): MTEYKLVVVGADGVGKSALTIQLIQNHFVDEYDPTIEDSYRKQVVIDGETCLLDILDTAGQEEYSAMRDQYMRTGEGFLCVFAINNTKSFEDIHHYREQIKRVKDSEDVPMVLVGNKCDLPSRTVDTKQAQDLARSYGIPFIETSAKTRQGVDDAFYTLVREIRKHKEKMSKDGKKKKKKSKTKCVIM
- method_summary: Ras GTP binding domain inhibition assay (labeled GTP)
- condition_parameters: at 20 μM; read-out: KRas G12D % Inh.

compound: O=C(CCc1nn[nH]n1)Nc1nc(-c2ccccn2)nc2sccc12 [drawing 3762]
inhibition at 20 µM: 51 to 75%
//
compound: Oc1nc(-c2ccccn2)nc2scc(Br)c12 [drawing 3623]
inhibition at 20 µM: 51 to 75%
//
compound: CC(C)(O)c1ccc(-c2csc3c(O)nc(-c4ccccn4)nc23)c(F)c1 [drawing 3752]
inhibition at 20 µM: 51 to 75%
//
compound: CCC(C)c1csc2c(OC)nc(-c3ccccn3)nc12 (stereo not drawn) [drawing 3790]
inhibition at 20 µM: 25 to 50%
//
compound: CC(C)COc1ccc(-c2csc3c(O)nc(-c4ccccn4)nc23)cn1 [drawing 3749]
inhibition at 20 µM: 51 to 75%
//
compound: COc1cccc(-c2csc3c(O)nc(-c4ccccn4)nc23)c1 [drawing 3744]
inhibition at 20 µM: 76 to 100%
//
compound: Oc1nc(-c2ccccn2)nc2sc3c(c12)CCCNC3 [drawing 3724]
inhibition at 20 µM: 51 to 75%
//
compound: Cc1sc2c(O)nc(-c3ccccn3)nc2c1-c1ccccc1 [drawing 3777]
inhibition at 20 µM: 51 to 75%
//
compound: CC(O)CNc1nc(-c2nccn2C)nc2sc(-c3ccccc3)c(-c3ccccc3)c12 (stereo not drawn) [drawing 3887]
inhibition at 20 µM: 1 to 25%

* * *

- System: MAPK phosphorylation in PANC-1 pancreatic cancer cell line
- method_summary: MAPK cell-based phosphorylation assay (cell-direct ELISA, EGF stimulation)
- condition_parameters: Homo sapiens, at 30 μM
Measured inhibition at 30 µM, listed per entry for reference.

molecule: NC(=O)C1CCCN(c2nc(-c3ccccn3)nc3scc(-c4ccccc4)c23)C1 (stereo not drawn) [drawing 1107]
inhibition at 30 µM: 1 to 25%
//
molecule: Nc1nc(-c2ccccn2)nc2scc(-c3ccccc3)c12 [drawing 1181]
inhibition at 30 µM: 1 to 25%
//
molecule: CNC(=O)CN1CCN(c2nc(-c3ccccn3)nc3scc(-c4ccccc4)c23)CC1 [drawing 1092]
inhibition at 30 µM: 1 to 25%
//
molecule: Brc1csc2nc(-c3ccccn3)nc(N3CCOCC3)c12 [drawing 1079]
inhibition at 30 µM: 1 to 25%
//
molecule: O=C(CNc1nc(-c2ccccn2)nc2scc(-c3ccccc3)c12)NC1CC1 [drawing 1097]
inhibition at 30 µM: 25 to 50%
//
molecule: Nc1nc(O)c2scc(C(=O)N3CCc4ccccc4CC3)c2n1 [drawing 1063]
inhibition at 30 µM: 1 to 25%
//
molecule: O=S1(=O)CCC(Nc2nc(-c3ccccn3)nc3scc(-c4ccccc4)c23)C1 (stereo not drawn) [drawing 1100]
inhibition at 30 µM: 1 to 25%
//
molecule: O=C(c1csc2c(O)nc(-c3ccccn3)nc12)N1CCOC(c2nccs2)C1 (stereo not drawn) [drawing 1129]
inhibition at 30 µM: 25 to 50%
//
molecule: O=C(Nc1nnc(-c2ccccn2)[nH]1)C1CCn2c(cnc2-c2ccccc2)C1 (stereo not drawn) [drawing 997]
inhibition at 30 µM: 1 to 25%

* * *

- subject_of_test: KRas G12C mutant (Homo sapiens (Human), UniProt P01116, G12C)
- Sequence (P01116-2 other isoform, or with tags, fused parts or gaps G12C): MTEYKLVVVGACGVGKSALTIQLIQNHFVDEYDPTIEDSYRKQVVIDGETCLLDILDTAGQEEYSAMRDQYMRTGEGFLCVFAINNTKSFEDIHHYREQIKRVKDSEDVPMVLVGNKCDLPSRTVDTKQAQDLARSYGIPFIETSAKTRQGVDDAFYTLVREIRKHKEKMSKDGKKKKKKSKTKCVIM
- method_summary: Ras GTP binding domain inhibition assay (labeled GTP)
- condition_parameters: 20 μM; read-out: KRas G12C % Inh.
- Method: Buffer-I: • 50 mM Tris, pH 7.5 • 150 mM NaCl (optional) • 1 mM MgCl2 • 1 mM DTT. • KRas G12D mutant protein was expressed as a His-tagged protein. […] Then 22 μl of Cy3-GTP or Cy5-GTP was added to each well. The labeled GTP was incubated for 45 min. at room temperature. • Following GTP incubation, wells were washed 3× in Buffer-I, and 200 μl of Buffer-I were added to each well. • Following washes, the amount of bound labeled-GTP was measured with an Eppendorf AF2200 plate reader. […]

molecule: O=C(Nc1nc(-c2ccccn2)cs1)c1cccnc1 [drawing 2576]
inhibition at 20 µM: 51 to 75%
//
molecule: O=C(Nc1nnc(-c2ccccn2)[nH]1)C1CC(=O)N(Cc2cccc(C(F)(F)F)c2)C1 (centres unmarked) [drawing 2547]
inhibition at 20 µM: 1 to 25%
//
molecule: Cc1cc2c(=O)nc(-c3cc(OCC(F)F)ccn3)[nH]c2s1 [drawing 2593]
inhibition at 20 µM: 25 to 50%
//
molecule: O=C(c1ccc2ccccc2n1)N1CCCc2c(O)nc(-c3ccccn3)nc21 [drawing 2642]
inhibition at 20 µM: 51 to 75%
//
molecule: NC(=O)C1(CNc2nc(-c3ccccn3)nc3c2CCC3)CCCC1 [drawing 2608]
inhibition at 20 µM: 25 to 50%

* * *

inhibition at 20 µM values, listed per item
- subject_of_test: KRas G12D/Q61H double mutant (Homo sapiens (Human), UniProt P01116, G12D/Q61H)
- Sequence (P01116-2 other isoform, or with tags, fused parts or gaps G12D/Q61H): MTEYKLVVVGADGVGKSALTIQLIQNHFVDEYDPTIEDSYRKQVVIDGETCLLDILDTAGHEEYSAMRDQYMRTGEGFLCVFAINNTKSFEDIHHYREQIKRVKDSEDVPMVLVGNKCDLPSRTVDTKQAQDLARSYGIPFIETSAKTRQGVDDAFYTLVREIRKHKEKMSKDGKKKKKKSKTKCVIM
- method_summary: Ras GTP binding domain inhibition assay (labeled GTP)
- condition_parameters: 20 μM compound; read-out: % Inhibition at 20 μM KRas G12D Q61H

molecule: COc1ccccc1-c1nnc(CNc2ccc(Cl)cc2Cl)o1
inhibition at 20 µM: 1 to 25%
--
molecule: Cc1noc(CNc2cc(C(F)(F)F)ccc2N2CCCC2)n1
inhibition at 20 µM: 25 to 50%
--
molecule: Oc1nc(-c2ccccn2)nc2c(-c3ccc(OC4CCCCC4)cc3)csc12 [drawing 2887]
inhibition at 20 µM: 25 to 50%
--
molecule: Cc1cc(NCCNC(=O)c2ccco2)nc(-c2ccccn2)n1
inhibition at 20 µM: 25 to 50%
--
molecule: CN(C)S(=O)(=O)c1ccc(CN2CCCc3cc(OC(F)(F)F)ccc32)o1
inhibition at 20 µM: 25 to 50%
--
molecule: Cc1cccc2c(=O)[nH]c(-c3ccccn3)nc12
inhibition at 20 µM: 25 to 50%
--
molecule: CC(C)COc1ccc(-c2csc3c(O)nc(-c4ccccn4)nc23)cn1 [drawing 2877]
inhibition at 20 µM: 51 to 75%
--
molecule: N#Cc1ccc2c(c1)CCCC2C(=O)Nc1ccnc(-c2ccccn2)n1 (centres unmarked) [drawing 2855]
inhibition at 20 µM: 51 to 75%
--
molecule: COc1ccccc1CN(Cc1cccs1)C(=O)c1ccc(-c2nc(C)no2)cc1
inhibition at 20 µM: 1 to 25%
--
molecule: O=C(Nc1nc(-c2ccccn2)cs1)c1cc(F)cc(F)c1
inhibition at 20 µM: 1 to 25%
--
molecule: O=C(NCCc1ccncc1)c1csc2nc(-c3ccccn3)nc(N3CCOCC3)c12 [drawing 2779]
inhibition at 20 µM: 0%
--
molecule: O=C(c1csc2c(O)nc(-c3ccccn3)nc12)N1CCNC(c2cccc(Cl)c2)C1 (centres unmarked)
inhibition at 20 µM: 25 to 50%
--
molecule: Cc1cccc(C)c1OCCn1c(CN2CCCCC2)nc2ccccc21
inhibition at 20 µM: 25 to 50%
--
molecule: Oc1nc(-c2ccccn2)nc2c(-c3cc(Cl)cc(Cl)c3)csc12 [drawing 2848]
inhibition at 20 µM: 25 to 50%
--
molecule: COC(=O)c1ccc(C(=O)N2Cc3ccccc3C(c3ccccc3)C2)nc1 (centres unmarked)
inhibition at 20 µM: 1 to 25%
--
molecule: COc1ccc(S(=O)(=O)N(CC(=O)N2CCCc3ccccc32)Cc2ccco2)cc1
inhibition at 20 µM: 25 to 50%
--
molecule: O=C(c1csc2c(O)nc(-c3ccccn3)nc12)N1CCOC(CN2CCOCC2)C1 (centres unmarked) [drawing 2805]
inhibition at 20 µM: 1 to 25%
--
molecule: Cc1sc2c(N)nc(-c3ccccn3)nc2c1Br [drawing 2893]
inhibition at 20 µM: 25 to 50%
--
molecule: CN(C)Cc1ccc(F)c(-c2csc3c(O)nc(-c4ccccn4)nc23)c1 [drawing 2901]
inhibition at 20 µM: 25 to 50%
--
molecule: COc1ncc(CCNC(=O)c2csc3nc(-c4ccccn4)nc(N4CCOCC4)c23)cn1 [drawing 2748]
inhibition at 20 µM: 1 to 25%
--
molecule: CN(Cc1nnc(-c2ccccc2)o1)Cc1ccccc1N1CCCC1
inhibition at 20 µM: 1 to 25%
--
molecule: O=C(Nc1nnc(-c2ccccn2)[nH]1)c1ccc(NC2CC2)nc1
inhibition at 20 µM: 25 to 50%
--
molecule: O=C(Nc1nnc(-c2ccccn2)[nH]1)c1cc(Cl)sc1Cl
inhibition at 20 µM: 25 to 50%
--
molecule: O=C(CCc1ccccn1)Nc1nnc(-c2ccccn2)[nH]1
inhibition at 20 µM: 25 to 50%
--
molecule: O=C(Nc1nnc(-c2ccccn2)[nH]1)c1cccc(Nc2ncccn2)c1
inhibition at 20 µM: 1 to 25%
--
molecule: CC(=O)Nc1ccc(-c2nc(NC3CCCCC3)sc2C)cc1
inhibition at 20 µM: 1 to 25%
--
molecule: CCNC(=O)CNc1nc(-c2ccccn2)nc(C)c1C
inhibition at 20 µM: 25 to 50%
--
molecule: COCCOCCN(C)C(=O)c1csc2c(O)nc(N)nc12
inhibition at 20 µM: 1 to 25%
--
molecule: O=c1nc(-c2ccccn2)[nH]c2c1cnn2-c1cccc(C(F)(F)F)c1
inhibition at 20 µM: 25 to 50%
--
molecule: CC(C(=O)Nc1nc(-c2ccccn2)nc2sccc12)c1ccc(C#N)cc1 (centres unmarked) [drawing 2798]
inhibition at 20 µM: 1 to 25%
--
molecule: CN1CCN(Cc2nnc(-c3ccccc3Cl)o2)c2ccc(F)cc21
inhibition at 20 µM: 25 to 50%
--
molecule: CN1CC(Nc2nc(-c3ccccn3)nc3c2CCC3)CCC1=O (centres unmarked)
inhibition at 20 µM: 25 to 50%
--
molecule: O=C(c1csc2c(O)nc(-c3ccccn3)nc12)N1CCOC(c2ccc(Cl)cc2)C1 (centres unmarked) [drawing 2730]
inhibition at 20 µM: 25 to 50%
--
molecule: COc1ccc(C2CN(C(=O)c3csc4c(O)nc(-c5ccccn5)nc34)CCO2)cc1 (centres unmarked) [drawing 2768]
inhibition at 20 µM: 25 to 50%
--
molecule: COc1ccnc(-c2nc(O)c3c(Br)csc3n2)c1 [drawing 2742]
inhibition at 20 µM: 25 to 50%
--
molecule: COCCN(CCOC)c1nc(-c2ccccn2)nc2scc(C(=O)NCCc3ccc(OC)nc3)c12 [drawing 2792]
inhibition at 20 µM: 1 to 25%
--
molecule: COc1ccc(N2CCN(C(=O)c3csc4c(O)nc(-c5ccccn5)nc34)CC2)cc1
inhibition at 20 µM: 25 to 50%
--
molecule: Cc1ccc(NC(=O)c2sc3nc(-c4ncccn4)[nH]c(=O)c3c2C)c(C)c1
inhibition at 20 µM: 1 to 25%
--
molecule: Cc1ccc(OC2CCCC2)c(-c2csc3c(O)nc(-c4ccccn4)nc23)c1 [drawing 2844]
inhibition at 20 µM: 51 to 75%
--
molecule: Oc1nc(-c2ccccn2)nc2c1ncn2-c1ccccn1 [drawing 2698]
inhibition at 20 µM: 25 to 50%
--
molecule: O=C(c1csc2c(O)nc(-c3ccccn3)nc12)N1CCN(c2cccc(O)c2)CC1
inhibition at 20 µM: 25 to 50%
